system: SUDHL10; test: Induction of cytotoxicity (CellTiter-Glo, 5 h), SUDHL10; details: Homo sapiens, SU-DHL10, 5 h, read-out: Cytotox SUDHL10 [M] (median), SUDHL10 cells, cytotoxicity induction, CellTiter-Glo, 5 h, median
Observation type: IC50

Worked examples follow.
Compound: Cn1nc(COCc2ccc(C(N)=O)cc2)c2c1COCCCCn1c(C(=O)O)c(CCCOc3cccc4ccccc34)c3cccc-2c31 (racemic)
IC50: > 3.3e-05 M

Compound: CN1CCCn2c(C(=O)O)c(CCCOc3cccc4ccccc34)c3cccc(c32)-c2c(nn(C)c2C(F)(F)F)C1 (racemic)
IC50: 2.68e-05 M

Compound: CCc1nn(C)c2c1-c1cccc3c(CCCOc4cccc5cc(C(F)(F)F)ccc45)c(C(=O)O)n(c13)CCCCOC2 (single isomer, unassigned; enantiomer 1)
IC50: 2.09e-05 M

Reported IC50 for CN(C)Cc1nn(C)c2c1-c1cccc3c(CCCOc4cccc5ccccc45)c(C(=O)O)n(c13)CCCCOC2 (racemic) : what is it?
> 3.3e-05 M

Item Cc1ccc2c(OCCCc3c(C(=O)O)n4c5c(cccc35)-c3c(nn(C)c3C)COCCCC4)cccc2c1 (single isomer, unassigned; enantiomer 1) [Example 308] has what recorded IC50?
> 3.3e-05 M

Quick one: IC50 for Cn1nc(COc2ccc(NS(C)(=O)=O)cc2)c2c1COCCCCn1c(C(=O)O)c(CCCOc3cccc4ccccc34)c3cccc-2c31 (single isomer, unassigned; enantiomer 1) ?
> 3.3e-05 M

* * *

Documented IC50 across a set of molecules
system: SUDHL10; assay: Induction of cytotoxicity (CellTiter-Glo, 5 h), SUDHL10; details: read-out: Cytotox SUDHL10 [M] (median); SUDHL10 cells, cytotoxicity induction, CellTiter-Glo, 5 h incubation, median
Report the figure in M without appending any unit label.

Molecule: Cn1nc(COc2ccc(S(C)(=O)=O)cc2)c2c1COCC=CCn1c(C(=O)O)c(CCCOc3cccc4ccccc34)c3cccc-2c31 (single isomer, unassigned) [Example 1-52]
Experimental system: SUDHL10
IC50 (M): 2.71e-05
//
Molecule: CN(C)S(=O)(=O)N1CCN(c2ccc(OCc3nn(C)c4c3-c3cccc5c(CCCOc6cccc7ccccc67)c(C(=O)O)n(c35)CCCCCC4)cc2)CC1 (single isomer, unassigned; enantiomer 1) [Example 1-40]
Experimental system: SUDHL10
IC50 (M): 2.3e-05
//
Molecule: Cc1nn(C)c2c1-c1cccc3c(CCCOc4cccc5c4CCCC5)c(C(=O)O)n(c13)CCCCOC2 (single isomer, unassigned; enantiomer 1) [Example 007]
Experimental system: SUDHL10
IC50 (M): 6e-06
//
Molecule: CC(=O)N1CCN(c2ccc(OCc3nn(C)c4c3-c3cccc5c(CCCOc6cccc7ccccc67)c(C(=O)O)n(c35)CCCCOC4)cc2)CC1 (single isomer, unassigned; enantiomer 1) [Example 1-25]
Experimental system: SUDHL10
IC50 (M): 4.02e-06

Now turn to the next molecule.
// returns reported IC50 for input Cc1c2c(nn1C)CN(C)CCCn1c(C(=O)O)c(CCCOc3cccc4ccccc34)c3cccc-2c31 (single isomer, unassigned; enantiomer 2) [Example 1-35]
1.18e-05

* * *

test system: SUDHL10; assay: Induction of cytotoxicity (CellTiter-Glo, 5 h), SUDHL10; settings: read-out: Cytotox SUDHL10 [M] (median); SUDHL10 cells, cytotoxicity induction, CellTiter-Glo, 5 h incubation, median
Catalogue of compounds with associated IC50
Unit M implied. Number only.

Compound: Cc1ccc2c(C(C)CCOc3cccc4cc(F)ccc34)c(C(=O)O)n3c2c1-c1c(nn(C)c1C)COCCCC3 (single isomer, unassigned) [Example 279]
Observation type: IC50
Endpoint value: 2.94e-05
//
Compound: Cn1nc(COc2ccc(N3CCN(C(=O)C4CC4)CC3)cc2)c2c1COCCCCn1c(C(=O)O)c(CCCOc3cccc4ccccc34)c3cccc-2c31 (single isomer, unassigned; enantiomer 1) [Example 1-22]
Observation type: IC50
Endpoint value: 2.7e-06
//
Compound: CCCc1nn(C)c2c1-c1c(C)ccc3c(CCCOc4cccc5ccccc45)c(C(=O)O)n(c13)CCCN(C)C2 (single isomer, unassigned; enantiomer 1) [Example 196]
Observation type: IC50
Endpoint value: 2.92e-06
//
Compound: Cc1c2c(nn1C)CN(C)CCCCn1c(C(=O)O)c(CCCOc3cccc4ccccc34)c3cccc-2c31 (single isomer, unassigned; enantiomer 1) [Example 068]
Observation type: IC50
Endpoint value: 5.02e-06
//
Compound: CCc1c2c(nn1CCN1CCOCC1)COCCCCn1c(C(=O)O)c(CCCOc3cccc4ccccc34)c3cccc-2c31 (single isomer, unassigned; enantiomer 2) [Example 203]
Observation type: IC50
Endpoint value: 4.31e-06
//
Compound: Cc1cc2c(OCCCc3c(C(=O)O)n4c5c(cccc35)-c3c(C)nn(C)c3COCCCC4)cccc2cc1F (single isomer, unassigned; enantiomer 2) [Example 051]
Observation type: IC50
Endpoint value: 2.02e-05
//
Compound: CCc1nn(CCN2CCOCC2)c2c1-c1cccc3c(CCCOc4cccc5ccccc45)c(C(=O)O)n(c13)CCCCOC2 (single isomer, unassigned; enantiomer 1) [Example 199]
Observation type: IC50
Endpoint value: 2.92e-06
//
Compound: CCOCc1nn(C)c2c1-c1cccc3c(CCCOc4cccc5c4CCCC5)c(C(=O)O)n(c13)CCCCOC2 (single isomer, unassigned; enantiomer 1) [Example 171]
Observation type: IC50
Endpoint value: 1.39e-05

What value of IC50 has been reported for the following compound? Cc1c2c(nn1CCN1CCOCC1)COCCCCn1c(C(=O)O)c(CCCOc3cccc4cc(F)ccc34)c3cccc-2c31 (single isomer, unassigned) [Example 285]
2.81e-06

For the compound shown here, CC(C)c1c2c(nn1C)CN(C)CCCn1c(C(=O)O)c(CCCOc3cccc4ccccc34)c3cccc-2c31 (single isomer, unassigned; enantiomer 2) , give the reported IC50.
1.49e-05

Endpoint output: IC50 of CCCc1nn(C)c2c1-c1c(C)ccc3c(CCCOc4cccc5ccccc45)c(C(=O)O)n(c13)CCCCOC2 (single isomer, unassigned; enantiomer 1) [Example 188] . Value?
6.61e-06

What does the data say about its IC50? Entry: CN1CCCCn2c(C(=O)O)c(CCCOc3cccc4ccccc34)c3cccc(c32)-c2c(CC(F)(F)F)nn(C)c2C1 (single isomer, unassigned) [Example 224]
3.2e-05

I am curious: what IC50 value has been reported for Cn1nc2c(c1OC(F)F)-c1cccc3c(CCCOc4cccc5ccccc45)c(C(=O)O)n(c13)CCCCOC2 (single isomer, unassigned) ?
2.52e-05
